# experiment: in vivo
# condition context: both, mixed-breed, dog, serum, iv, CL GPC, GPC model; mean of seven dogs
property measured: clearance (mL/min/kg)
Give bare numbers, in mL/min/kg.

The recorded clearance for entry CN(C)C(=N)N=C(N)N [metformin, 1,1-dimethylbiguanide] equals 15.1

###

# experiment: in vivo
# condition context: both, mixed-breed, dog, serum, iv, AUC, GPC fit, single IV bolus; mean of seven dogs
property measured: AUC
Quote the value and follow it with the unit of measurement.

Given item CN(C)C(=N)N=C(N)N [metformin, 1,1-dimethylbiguanide] , the value recorded as its AUC is 23600 ng·h/mL

###

# experiment: in vivo
# condition context: both, mixed-breed, dog, serum, iv, CL, GPC fit, single IV bolus; mean of seven dogs
property measured: clearance (mL/min/kg)
One number for each entry, in mL/min/kg.

The recorded clearance for entry CN(C)C(=N)N=C(N)N [metformin, 1,1-dimethylbiguanide] equals 15.1

Data provenance: paper PMC7040082
